# Test system: Sindbis virus
# PROTOCOL SUMMARY: Antiviral activity against sindbis virus in vero cells
# Type: functional, organism-based
Calls of active or inactive are those of the source. The calls are words filed in the database; no cut-off is given here.
PROPERTY LABEL: Activity

In the examples that follow, each entry is paired with its recorded Activity.
COc1cc(O)c2c(=O)c3cc(N)c(Cl)cc3n(C)c2c1: inactive
COc1cc(OC)c2c(=O)c3cc([N+](=O)[O-])c(Cl)cc3n(C)c2c1: inactive
COc1cc(OC)c2c(=O)c3cc(N)c(Cl)cc3n(C)c2c1: inactive
COc1cc(O)c2c(=O)c3cc([N+](=O)[O-])c(N4CCN(c5ccccn5)CC4)cc3n(C)c2c1: inactive
COc1cc(O)c2c(=O)c3cc([N+](=O)[O-])c(Cl)cc3n(C)c2c1: inactive

// switching to the query molecule
May I ask what Activity has been recorded for Cn1c2cc(Cl)c(N)cc2c(=O)c2c(O)cc(O)cc21 ? inactive

----------
# System: MDBK441
# PROTOCOL SUMMARY: Cytotoxicity against MDBK cells
# Type: functional
# RUN CONDITIONS: Bos taurus
// reported CC50 per item

In the examples that follow, each entry is paired with its recorded CC50.
C[C@@]1(O)[C@H](O)[C@@H](CO)O[C@H]1n1cnc2c(N)ncnc21: > 14 µg/mL
COc1cc(O)c2c(=O)c3cc([N+](=O)[O-])c(Cl)cc3n(C)c2c1: 83 µg/mL
Cn1c2cc(Cl)c(N)cc2c(=O)c2c(O)cc(O)cc21: 5 µg/mL
COc1cc(OC)c2c(=O)c3cc(N)c(N4CCN(c5ccccn5)CC4)cc3n(C)c2c1: > 100 µg/mL

May I ask what CC50 has been recorded for Cn1c2cc(N3CCN(c4ccccn4)CC3)c(N)cc2c(=O)c2c(O)cc(O)cc21 ? > 100 µg/mL

----------
# Test system: MDBK441
# PROTOCOL SUMMARY: Cytotoxicity against MDBK cells
# Assay type: functional
# RUN CONDITIONS: Bos taurus
PROPERTY LABEL: CC50

In the examples that follow, each entry is paired with its recorded CC50.
COc1cc(O)c2c(=O)c3cc(N)c(N4CCN(c5ccccn5)CC4)cc3n(C)c2c1: > 100 µg/mL
COc1cc(OC)c2c(=O)c3cc(N)c(Cl)cc3n(C)c2c1: > 100 µg/mL
CCCN(CCC)CCSc1n[nH]c2c3ccccc3nc-2n1: > 1 µg/mL
COc1cc(OC)c2c(=O)c3cc([N+](=O)[O-])c(Cl)cc3n(C)c2c1: > 100 µg/mL
COc1cc(OC)c2c(=O)c3cc([N+](=O)[O-])c(N4CCN(c5ccccn5)CC4)cc3n(C)c2c1: > 100 µg/mL

May I ask what CC50 has been recorded for COc1cc(O)c2c(=O)c3cc(N)c(Cl)cc3n(C)c2c1 ? > 33 µg/mL

Proceed to COc1cc(O)c2c(=O)c3cc([N+](=O)[O-])c(N4CCN(c5ccccn5)CC4)cc3n(C)c2c1 > 100 µg/mL

----------
# Tested on: Human alphaherpesvirus 2
# PROTOCOL SUMMARY: Antiviral activity against HSV2 G in E6SM cells
# Type: functional, organism-based
Activity calls are given as the source filed them. The calls are words filed in the database; no cut-off is given here.
PROPERTY LABEL: Activity

In the examples that follow, each entry is paired with its recorded Activity.
COc1cc(O)c2c(=O)c3cc(N)c(Cl)cc3n(C)c2c1: inactive
Cn1c2cc(N3CCN(c4ccccn4)CC3)c(N)cc2c(=O)c2c(O)cc(O)cc21: inactive
COc1cc(O)c2c(=O)c3cc(N)c(N4CCN(c5ccccn5)CC4)cc3n(C)c2c1: inactive
COc1cc(OC)c2c(=O)c3cc(N)c(Cl)cc3n(C)c2c1: inactive

// switching to the query compound
Provide the documented Activity with Human alphaherpesvirus 2 as the system for COc1cc(O)c2c(=O)c3cc([N+](=O)[O-])c(N4CCN(c5ccccn5)CC4)cc3n(C)c2c1 inactive

----------
# Tested on: Vesicular stomatitis virus
# PROTOCOL SUMMARY: Antiviral activity against vesicular stomatitis virus in E6SM cells
# Assay type: functional, organism-based
Calls of active or inactive are those of the source. No cut-off for these calls is given here.
PROPERTY LABEL: Activity

In the examples that follow, each entry is paired with its recorded Activity.
COc1cc(O)c2c(=O)c3cc([N+](=O)[O-])c(N4CCN(c5ccccn5)CC4)cc3n(C)c2c1: inactive
COc1cc(OC)c2c(=O)c3cc([N+](=O)[O-])c(Cl)cc3n(C)c2c1: inactive
COc1cc(OC)c2c(=O)c3cc(N)c(N4CCN(c5ccccn5)CC4)cc3n(C)c2c1: inactive
COc1cc(OC)c2c(=O)c3cc(N)c(Cl)cc3n(C)c2c1: inactive

// switching to the query compound
May I ask what Activity has been recorded for COc1cc(OC)c2c(=O)c3cc([N+](=O)[O-])c(N4CCN(c5ccccn5)CC4)cc3n(C)c2c1 ? inactive

----------
# System: Coxsackievirus B4
# PROTOCOL SUMMARY: Antiviral activity against coxsackie virus B4 in vero cells
# Type: functional, organism-based
Activity calls are given as the source filed them. The rule behind the calls is not given here.
PROPERTY LABEL: Activity

In the examples that follow, each entry is paired with its recorded Activity.
Cn1c2cc(N3CCN(c4ccccn4)CC3)c(N)cc2c(=O)c2c(O)cc(O)cc21: inactive
COc1cc(O)c2c(=O)c3cc(N)c(Cl)cc3n(C)c2c1: inactive
Cn1c2cc(Cl)c(N)cc2c(=O)c2c(O)cc(O)cc21: inactive
COc1cc(OC)c2c(=O)c3cc([N+](=O)[O-])c(Cl)cc3n(C)c2c1: inactive

May I ask what Activity has been recorded for COc1cc(O)c2c(=O)c3cc([N+](=O)[O-])c(Cl)cc3n(C)c2c1 ? inactive

----------
# System: Human alphaherpesvirus 2
# PROTOCOL SUMMARY: Antiviral activity against HSV2 G in E6SM cells
# Format: functional, organism-based
The source made the active and inactive calls. The calls are words filed in the database; no cut-off is given here.
PROPERTY LABEL: Activity

In the examples that follow, each entry is paired with its recorded Activity.
COc1cc(OC)c2c(=O)c3cc(N)c(N4CCN(c5ccccn5)CC4)cc3n(C)c2c1: inactive
Cn1c2cc(Cl)c(N)cc2c(=O)c2c(O)cc(O)cc21: inactive
COc1cc(OC)c2c(=O)c3cc([N+](=O)[O-])c(Cl)cc3n(C)c2c1: inactive
COc1cc(OC)c2c(=O)c3cc([N+](=O)[O-])c(N4CCN(c5ccccn5)CC4)cc3n(C)c2c1: inactive

May I ask what Activity has been recorded for COc1cc(O)c2c(=O)c3cc([N+](=O)[O-])c(Cl)cc3n(C)c2c1 ? inactive

All values here come from ChEMBL document CHEMBL1146075.
